- ASSAY_NOTES: small-molecule microarray binders of probe aLefty2, primary screen, biochemical, biotinylated probe, 635/667 nm fluorescence (AID 1094);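 note: score merges spot fluorescence near 667 nm with spot signal-to-noise ratio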
- CONDITION_LABEL: higher = more signal
EXPERIMENTAL_READOUT: composite z-score
# output: bare number, no unit

**Query** Quick one: composite z-score for COCCOC(=O)N1C(=O)[C@@]2(c3cc(C#CC4(O)CCCCCC4)ccc31)[C@H](c1ccc(OCCO)cc1)N1[C@H](c3ccccc3)[C@H](c3ccccc3)OC(=O)[C@H]1[C@@H]2C(=O)N1CCN(c2ncccn2)CC1 ?
**Result** -0.136

**Query** Quick one: composite z-score for C=C[C@H](CO[Si](CC)(CC)CC)N(Cc1ccc(OC(C)=O)c(OC)c1)S(=O)(=O)c1ccc(Br)cc1 ?
**Result** 0.476

**Query** Quick one: composite z-score for C=CCN1C(=O)[C@]2(O[C@H](CCn3cc([C@H](O)c4ccccc4)nn3)[C@@H]([Si](C)(C)c3ccc(OC)cc3)[C@@H]2C)c2cc(N3CCC3=O)ccc21 ?
**Result** -0.0397

**Query** Quick one: composite z-score for COCCOC(=O)N1C(=O)[C@@]2(c3cc(C#Cc4ccc(OC)cc4)ccc31)[C@H](c1ccccc1OCCO)N1[C@H](c3ccccc3)[C@H](c3ccccc3)OC(=O)[C@H]1[C@@H]2C(=O)NC[C@H](O)c1ccccc1 ?
**Result** -0.0304

**Query** Quick one: composite z-score for C[C@H]1NC(=O)[C@@]23C(=O)N[C@@H](Cc4ccccc4)C2[C@H](C)[C@@]2(C)O[C@H]2C3/C=C/C/C=C\CNC(=O)[C@@H]2CCCN2C1=O (stereo not given in full) ?
**Result** -0.166
